test.target: Factor D (Homo sapiens (Human), UniProt P00746)
Sequence (P00746 26-253): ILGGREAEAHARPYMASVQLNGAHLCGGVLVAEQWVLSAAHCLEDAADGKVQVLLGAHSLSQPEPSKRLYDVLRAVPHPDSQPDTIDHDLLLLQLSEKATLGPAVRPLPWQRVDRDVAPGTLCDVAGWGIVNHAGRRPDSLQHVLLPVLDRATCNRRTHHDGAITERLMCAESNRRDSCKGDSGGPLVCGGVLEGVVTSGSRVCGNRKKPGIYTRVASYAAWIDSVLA
assay.explanation: biochemical
Format: biochemical
stated.conditions: read-out: IC50
pIC50: −log10 of the molar value.
experimental.readout: pIC50

                                   molecule  result_number
0  COc1ccc2c(C(C)=O)cn(CC(=O)N3C[C@H](F)[C@@H](OC)[C@H]3C(=O)NCc3cccc(Cl)c3F)c2c1           7.89
1  NC(=O)n1cc(NC(=O)N2C[C@@H](CO)C[C@H]2C(=O)NCc2cccc(Br)c2F)c2ccccc21           6.98
2  NC(=O)c1nn(CC(=O)N2[C@@H]3C[C@@H]3C[C@H]2C(=O)Nc2cccc(Br)n2)c2cc(Cl)ccc12           8.40
3  NC[C@@]1(F)C[C@@H](C(=O)NCc2cccc(Cl)c2F)N(C(=O)Cc2cn(C(N)=O)c3ccccc23)C1           6.60
4  COCCOc1ccc2c(c1)c(NC(=O)N1C3CC3C[C@H]1C(=O)NCc1cccc(Cl)c1F)cn2C(N)=O (stereo partly shown)           8.30
5  NC(=O)n1cc(NC(=O)N2C[C@H](F)C[C@H]2C(=O)NCc2ccnc(C(F)(F)F)c2F)c2ccccc21           6.00
6  NC(=O)n1cc(NC(=O)N2[C@@H]3C[C@@H]3C[C@H]2C(=O)NCc2cccc(Cl)c2F)c2ccc(OCC(=O)O)cc21           6.61

====

test.target: Factor D (Homo sapiens (Human), UniProt P00746)
assay.explanation: biochemical
Assay type: biochemical
stated.conditions: read-out: IC50
Lab note - cut at 50 nM for IC50: Y if strictly below, N if not.

>>> print(df.to_string())
                         chemical_structure  class_name
0  CN(C)CCOc1ccc2c(c1)c(CC(=O)N1[C@@H]3C[C@@H]3C[C@H]1C(=O)NCc1cccc(Cl)c1F)cn2C(N)=O           N
1  C[C@@]1(F)C[C@@H](C(=O)N[C@H](CCO)c2cccc(Cl)c2F)N(C(=O)Nc2cn(C(N)=O)c3ccccc23)C1           Y
2  NC(=O)n1cc(NC(=O)N2C[C@@H](N)C[C@H]2C(=O)NCc2cccc(F)c2)c2ccccc21           N
3  CC(=O)n1cc(NC(=O)N2[C@@H]3C[C@@H]3C[C@H]2C(=O)N[C@H](CN(C)C)c2cccc(Cl)c2F)c2ccccc21           Y
4  CNC(=O)n1cc(NC(=O)N2[C@@H]3C[C@@H]3C[C@H]2C(=O)N[C@H](COC)c2cccc(Cl)c2F)c2ccccc21           N
5  CO[C@H]1[C@@H](C(=O)N[C@H](C)c2cccc(Cl)c2F)N(C(=O)Cn2nc(C(N)=O)c3cnccc32)C[C@@H]1F           N
6  COC1(OC)C[C@@H](C(=O)NCc2cccc(Cl)c2F)N(C(=O)Nc2cn(C(N)=O)c3ccccc23)C1           N

====

test.target: Factor D (Homo sapiens (Human))
assay.explanation: biochemical
Type: biochemical
pIC50: −log10 of the molar value.
experimental.readout: pIC50

                                   compound  result_number
0  NC(=O)n1cc(NC(=O)N2C[C@H]3C[C@H]3[C@H]2C(=O)NCc2cccc(Cl)c2)c2ccccc21 (relative stereo)           6.97
1  [2H]C([2H])([2H])C(=O)c1cn(CC(=O)N2C[C@H](F)[C@@H](OC)[C@H]2C(=O)NCc2cccc(Cl)c2F)c2ccccc12           7.85
2  [2H]C([2H])([2H])O[C@H]1[C@@H](C(=O)NCc2cccc(Cl)c2F)N(C(=O)Cn2cc(C(C)=O)c3ccccc32)C[C@@H]1F           7.77
